The reported numbers originate from the supplement of paper PMC6555819.

- Tested on: PPARg DBDmut:RXRa IVT, anti-PPARg (DBD mutation: PPARg1 K132A/R137A, NR concentration 270 nM, RXRa partner concentration 90 nM)
- PROTOCOL: PBM binding z-score (relative to random genomic background probes); higher = stronger binding; sequences stand for … in GC…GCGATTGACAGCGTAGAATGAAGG
OUTCOME MEASURE: PBM binding z-score

Please give PBM binding z-score, item by item, for the list that follows.
1. CAAACTAGGTCACCGGAAGGTCAAAGTACGCATG
2. CATACAGGGTCAGCTAGGCCAGACTAGGGACGGC
3. TAGCCGAGGTCATGGGCCAGTATACCACGCGAAC
4. TGGCCTAGGTCATTCAGGGGCCAGTATAGAAAGC
5. ATCTCTAGGTAAAGCTAGTTCAGTGAATGCAAAT
6. CCTTACGGGTCAAGGTTATAGCTCGGGTGGTACG

# output
1: 4.79; 2: 0.631; 3: 1.31; 4: -0.515; 5: 0.606; 6: 0.883
